Numbers sourced from patent US10501460B2.

Molecular target: BRD4-BD1 (44-164) (Homo sapiens, UniProt O60885)
Construct: BRD4-BD1 (44-164); made in house; host or cells: E. coli BL21-CodonPlus (DE3)
Experiment: Alphascreen binding assay BRD4-BD1 (BRD4 biochemical inhibitory activity)
Conditions: read-out: Biochemical activity (IC50 μM) BRD4(1) H4
Experimental: Binding of compounds of formula (I) with bromodomain 2, 3 4 was assessed using Alphascreen binding assay. The inhibition of the interaction between bromodomain and its acetylated target protein (Filippakopoulos P et al. 2012) was measured quantitatively using recombinant BRD proteins, an acetylated Histone 4 peptide and AlphaScreen™ technology. […]
Provide the recorded IC50 for the entries that follow.

Memo: Cc1noc(C)c1-c1cnc2[nH]c(C)c(C(=O)c3cccnc3)c2c1 [P-0006] , reported IC50: 1 to 10 µM

Memo: Cc1noc(C)c1-c1cnc2ccn(S(=O)(=O)c3cnn(C(F)F)c3)c2c1 [P-0054] , reported IC50: 1 to 10 µM

Memo: Cc1noc(C)c1-c1cnc2c(c1)c(CC1CC3CCC1C3)cn2C (stereo not drawn) [P-0100] , reported IC50: 1 to 10 µM

Memo: COC(c1c[nH]c2cc(-c3c(C)noc3C)cnc12)C1CC1 (stereo not drawn) [P-0069] , reported IC50: 1 to 10 µM

Memo: [2H]C([2H])([2H])n1cc(C(OC)C2CCC(F)(F)CC2)c2cc(-c3c(C)noc3C)cnc21 (stereo not drawn) [P-0080] , reported IC50: ≤ 1 µM

Memo: COc1ccccc1S(=O)(=O)n1ccc2ncc(-c3c(C)noc3C)cc21 [P-0065] , reported IC50: 1 to 10 µM

Memo: [2H]C([2H])([2H])n1cc(CC2CCN(C(=O)OCc3ccccc3)CC2)c2cc(-c3c(C)noc3C)cnc21 [P-0092] , reported IC50: ≤ 1 µM

Memo: Cc1noc(C)c1-c1cnc2c(C(=O)O)cn(S(=O)(=O)c3ccccc3)c2c1 [P-0169] , reported IC50: ≤ 1 µM

Memo: Cc1noc(C)c1-c1cnc2c(c1)c(CC1CCS(=O)(=O)CC1)cn2S(=O)(=O)c1ccccc1 [P-0096] , reported IC50: 1 to 10 µM

Memo: Cc1noc(C)c1-c1cnc2c(c1)N(S(=O)(=O)c1ccccc1)CC2CCC(=O)O (stereo not drawn) [P-0175] , reported IC50: 1 to 10 µM

Memo: Cc1noc(C)c1-c1cnc2[nH]c(-c3ccc(F)cc3)c(C(=O)c3cccnc3)c2c1 [P-0008] , reported IC50: 1 to 10 µM

Memo: Cc1noc(C)c1-c1cnc2[nH]cc(C(O)c3ccc(C(F)(F)F)nc3)c2c1 (stereo not drawn) [P-0023] , reported IC50: 1 to 10 µM

Memo: Cc1noc(C)c1-c1cnc2c(I)c[nH]c2c1 [P-0072] , reported IC50: 1 to 10 µM

Memo: Cc1noc(C)c1-c1cnc2c(I)cn([Si](C(C)C)(C(C)C)C(C)C)c2c1 [P-0130] , reported IC50: 1 to 10 µM

Memo: Cc1cc(-c2cn(S(=O)(=O)c3ccccc3)c3cc(-c4c(C)noc4C)cnc23)[nH]n1 [P-0164] , reported IC50: ≤ 1 µM

* * *

tested on: bromodomain; assay: Bromodomain cell assays of Example 40 (at least one of them); format: cell-based; conditions: in at least one of the bromodomain cell assays described in Example 40
assay-endpoint: IC50

Memo: Cc1noc(C)c1-c1cnc2c(c1)c(C(O)C1CCS(=O)(=O)CC1)cn2S(=O)(=O)c1ccccc1 (centres unmarked) [P-0094] , reported IC50: < 10 µM

Memo: Cc1noc(C)c1-c1cnc2ccn(S(=O)(=O)c3ccc(OC(C)C)cc3)c2c1 [P-0033] , reported IC50: < 10 µM

Memo: Cc1noc(C)c1-c1cnc2c(c1)c(C(F)C1CCS(=O)(=O)CC1)cn2S(=O)(=O)c1ccccc1 (centres unmarked) [P-0095] , reported IC50: < 10 µM

Memo: Cc1noc(C)c1-c1cnc2[nH]cc(C(=O)c3ccc(C(F)(F)F)cc3)c2c1 [P-0016] , reported IC50: < 10 µM

Memo: Cc1noc(C)c1-c1cnc2ccn(S(=O)(=O)C3CCCCC3)c2c1 [P-0066] , reported IC50: < 10 µM

Memo: Cc1noc(C)c1-c1cnc2[nH]cc(C3(O)CCC(F)(F)CC3)c2c1 [P-0024] , reported IC50: < 10 µM

Memo: Cc1noc(C)c1-c1cnc2c(-c3cnn(C)c3)cn(S(=O)(=O)c3ccccc3)c2c1 [P-0110] , reported IC50: < 10 µM

Memo: Cc1noc(C)c1-c1cnc2c(C#CCF)cn(S(=O)(=O)c3ccccc3)c2c1 [P-0157] , reported IC50: < 10 µM

Memo: COC(c1c[nH]c2ncc(-c3c(C)noc3C)cc12)C1CCC(F)(F)CC1 (centres unmarked) [P-0073] , reported IC50: < 10 µM

Memo: Cc1noc(C)c1-c1cnc2ccn(S(=O)(=O)c3cnn(C(F)F)c3)c2c1 [P-0054] , reported IC50: < 10 µM

Memo: Cc1cc2cc(-c3c(C)noc3C)cnc2[nH]1 [P-0017] , reported IC50: < 10 µM

Memo: Cc1noc(C)c1-c1cnc2c(c1)c(CC1CCN(C(=O)c3ccccc3)CC1)cn2C [P-0115] , reported IC50: < 10 µM

Memo: Cc1noc(C)c1-c1cnc2c(-c3cnn(CC(F)(F)F)c3)cn(S(=O)(=O)c3ccccc3)c2c1 [P-0146] , reported IC50: < 10 µM

Memo: Cc1noc(C)c1-c1ccc2c(-c3cnn(C)c3)cn(Cc3c(F)cccc3F)c2c1 [P-0229] , reported IC50: < 10 µM

Memo: Cc1noc(C)c1-c1cnc2c(-c3cnn(C(F)F)c3)cn(S(=O)(=O)c3ccccc3)c2c1 [P-0131] , reported IC50: < 10 µM

Memo: Cc1noc(C)c1-c1cnc2[nH]cc(C(O)c3ccc(OCC(F)(F)F)nc3)c2c1 (centres unmarked) [P-0012] , reported IC50: < 10 µM

Memo: Cc1noc(C)c1-c1cnc2[nH]cc(C(O)c3ccccc3Cl)c2c1 (centres unmarked) [P-0019] , reported IC50: < 10 µM

Memo: Cc1noc(C)c1-c1cnc2c(c1)c(C=C1CCS(=O)(=O)CC1)cn2S(=O)(=O)c1ccccc1 [P-0097] , reported IC50: < 10 µM

Memo: Cc1noc(C)c1-c1cnc2c(-c3cnn(C)c3)cn(S(=O)(=O)c3ccccc3F)c2c1 [P-0121] , reported IC50: < 10 µM

Memo: CCn1cc(-c2cn(C(C)c3ccccc3)c3cc(-c4c(C)noc4C)cnc23)cn1 (centres unmarked) [P-0200] , reported IC50: < 10 µM

Memo: Cc1noc(C)c1-c1cnc2c(-c3cnn(CC(F)(F)F)c3)cn(CC3(F)CCCCC3)c2c1 [P-0237] , reported IC50: < 10 µM

Memo: COc1ncc(F)cc1Cc1c[nH]c2ncc(-c3c(C)noc3C)cc12 [P-0028] , reported IC50: < 10 µM

Memo: Cc1noc(C)c1-c1cnc2[nH]cc(C(=O)C3CCC(F)(F)CC3)c2c1 [P-0031] , reported IC50: < 10 µM

Memo: Cc1noc(C)c1-c1cnc2c(-c3cnn(C)c3)cn(C(C)c3ccccc3)c2c1 (centres unmarked) [P-0161] , reported IC50: < 10 µM

Memo: CCCS(=O)(=O)n1cc(-c2cnn(C)c2)c2ncc(-c3c(C)noc3C)cc21 [P-0111] , reported IC50: < 10 µM

Memo: Cc1noc(C)c1-c1cnc2[nH]c(-c3ccc(F)cc3)c(C(=O)c3cccnc3)c2c1 [P-0008] , reported IC50: < 10 µM

Memo: Cc1noc(C)c1-c1cnc2cc[nH]c2c1 [P-0018] , reported IC50: < 10 µM

Memo: Cc1ccc(S(=O)(=O)n2ccc3ncc(-c4c(C)noc4C)cc32)s1 [P-0062] , reported IC50: < 10 µM

Memo: Cc1noc(C)c1-c1cnc2c(-c3cnn(C4CCOC4)c3)cn(S(=O)(=O)C3CCCC3)c2c1 (centres unmarked) [P-0153] , reported IC50: < 10 µM

Memo: Cc1noc(C)c1-c1cnc2c(C(=O)O)cn(S(=O)(=O)c3ccccc3)c2c1 [P-0169] , reported IC50: < 10 µM

Memo: C=CCn1cc(-c2cn(S(=O)(=O)c3ccccc3F)c3cc(-c4c(C)noc4C)cnc23)cn1 [P-0127] , reported IC50: < 10 µM

Memo: Cc1noc(C)c1-c1cnc2[nH]cc(C(=O)C3CCSCC3)c2c1 [P-0091] , reported IC50: < 10 µM

Memo: COC(c1c(F)cccc1Cl)c1c[nH]c2ncc(-c3c(C)noc3C)cc12 (centres unmarked) [P-0014] , reported IC50: < 10 µM

Memo: Cc1noc(C)c1-c1cnc2[nH]cc(C=C3CC[S+]([O-])CC3)c2c1 (centres unmarked) [P-0093] , reported IC50: < 10 µM

Memo: COCCn1cc(-c2cn(C(C)c3ccccc3)c3cc(-c4c(C)noc4C)cnc23)cn1 (centres unmarked) [P-0203] , reported IC50: < 10 µM
